Provenance of the data: ChEMBL document CHEMBL1147249

# reported Activity; entries follow
tested on: Raji; assay: Inhibition of 12-O-tetradecanoylphorbol-13-acetate-induced EBV-early antigen activation in human Raji cells assessed as early antigen induction at 10 molar ratio after 48 hrs by conventional indirect immunofluorescence technique relative to TPA; assay type: cell-based; design: scale not given: the % may be the effect or the level left; details: human gammaherpesvirus 4
The figure you give is taken to be in %; do not add the unit.

Known results for compounds:
COMPOUND | UNIT DESCRIPTOR | RECORDED MEASUREMENT
C[C@@H](CC[C@H](O)C(C)(C)O)[C@@H]1CC[C@]2(C)[C@H]3CC[C@@]4(C(C)(C)O)OCCC[C@H]4[C@]3(C)CC[C@@]12C [(24S)-24,25-DIHYDROXYSUNPOLLENOL] | % | 94.2
C[C@@H](CC[C@H]1OC1(C)C)[C@@H]1CC[C@]2(C)[C@H]3CC[C@@]4(C(C)(C)O)OCCC[C@H]4[C@]3(C)CC[C@@]12C [(24R)-24,25-EPOXYSUNPOLLENOL] | % | 91.8
CC(C)=CCC[C@H](C)[C@@H]1CC[C@]2(C)[C@H]3CC[C@@]4(C(C)(C)O)OCCC[C@H]4[C@]3(C)CC[C@@]12C | % | 96.8

Please tell me the measured Activity for C[C@@H](CC[C@@H](O)C(C)(C)O)[C@@H]1CC[C@]2(C)[C@H]3CC[C@@]4(C(C)(C)O)OCCC[C@H]4[C@]3(C)CC[C@@]12C ; system: Raji.
92.5
